experiment: clinical; conditions: human, in vivo, iv, Vdss
Quantity: Vd (L/kg)
Please state the figure in L/kg; there is no need to write the unit.

Would you please look over these solved cases?
Compound: NC[C@H]1O[C@H](O[C@H]2[C@H](O)[C@@H](O[C@H]3O[C@H](CO)[C@@H](O)[C@H](N)[C@H]3O)[C@H](N)C[C@@H]2N)[C@H](N)C[C@@H]1O
Vd / L/kg: 0.23
//
Compound: NNC(=O)c1ccncc1
Vd / L/kg: 0.82

For this compound ( CC[C@H](C)C(=O)O[C@H]1C[C@H](O)C=C2C=C[C@H](C)[C@H](CC[C@@H](O)C[C@@H](O)CC(=O)O)[C@H]21 ), measured Vd is 0.46

// field: Vd; key: OC(CCN1CCCC1)(c1ccccc1)C1CCCCC1 (stereo unspecified) ; value = 0.74

Sample O=C1C(O)=C([C@H]2CC[C@H](c3ccc(Cl)cc3)CC2)C(=O)c2ccccc21 ; Vd observed: 0.6

Record summary for CC(=O)O[C@@]12CO[C@@H]1C[C@H](O)[C@@]1(C)C(=O)[C@H](O)C3=C(C)[C@@H](OC(=O)[C@H](O)[C@@H](NC(=O)OC(C)(C)C)c4ccccc4)C[C@@](O)([C@@H](OC(=O)c4ccccc4)[C@H]21)C3(C)C.O.O.O : reported Vd = 2.1

* * *

test: clinical; conditions: human, in vivo, iv
The label depends only on MRT: Fulfilled if it is at least 2 h, Not fulfilled if it is smaller.

Compound: COc1ccccc1Oc1c(NS(=O)(=O)c2ccc(C(C)(C)C)cc2)nc(-c2ncccn2)nc1OCCO
Qualitative Label: Fulfilled
//
Compound: CC(C)n1c(/C=C/C(O)CC(O)CC(=O)O)c(-c2ccc(F)cc2)c2ccccc21 (centres undefined)
Qualitative Label: Not fulfilled
//
Compound: CC(C)c1cccc(C(C)C)c1O
Qualitative Label: Fulfilled
//
Compound: Cc1cc(O)c2c(=O)c3c(O)cc(O)c4c5c(O)cc(O)c6c(=O)c7c(O)cc(CO)c8c1c2c(c34)c(c65)c78
Qualitative Label: Fulfilled
//
Compound: Nc1ccc(S(=O)(=O)c2ccc(N)cc2)cc1
Qualitative Label: Fulfilled
//
Compound: Nc1nc2c(c(=O)[nH]1)N(C=O)C(CNc1ccc(C(=O)N[C@@H](CCC(=O)O)C(=O)O)cc1)CN2 (some centres undefined)
Qualitative Label: Not fulfilled
//
Compound: CCN(CC)CC(=O)Nc1c(C)cccc1C
Qualitative Label: Not fulfilled
//
Compound: COCCOC(=O)C1=C(C)NC(C)=C(C(=O)OC(C)C)C1c1cccc([N+](=O)[O-])c1 (centres undefined)
Qualitative Label: Not fulfilled

Field: next compound
Data request: API: above_or_equal(metric=MRT, cutoff=2 h) for item O=C(O)C1N=C(c2ccccc2)c2cc(Cl)ccc2NC1=O (centres undefined) [CLORAZEPIC ACID]
Data returned: Fulfilled

* * *

assay: clinical; conditions: human, in vivo, iv
Entries annotated with measured fraction unbound

Examples with answers:
Compound: COc1cccc(OC)c1C(=O)N[C@@H]1C(=O)N2[C@@H]1SC(C)(C)[C@@H]2C(=O)O
fraction unbound: 0.43
//
Compound: Cc1onc(-c2c(F)cccc2Cl)c1C(=O)N[C@@H]1C(=O)N2[C@@H]1SC(C)(C)[C@@H]2C(=O)O
fraction unbound: 0.043
//
Compound: CN(C)CCCN1c2ccccc2CCc2cc(O)ccc21 [2-HYDROXYIMIPRAMINE]
fraction unbound: 0.36
//
Compound: C[C@@H](O)[C@H]1C(=O)N2C(C(=O)O)=C(SCCOC(N)=O)S[C@H]12
fraction unbound: 0.35

The compound listed as C#C[C@]1(O)CC[C@H]2[C@@H]3CCC4=CC(=O)CC[C@@H]4[C@H]3CC[C@@]21CC has a reported fraction unbound of 0.025

Documented fraction unbound of COc1cc(NCc2ccc3nc(N)nc(N)c3c2C)cc(OC)c1OC [TRIMETREXATE] : 0.05

GET /value?item= CC1(C)C(/C=C/C=C/C=C/C=C2/N(CCCCS(=O)(=O)[O-])c3ccc4ccccc4c3C2(C)C)=[N+](CCCCS(=O)(=O)[O-])c2ccc3ccccc3c21.[Na+] &field=fraction unbound returns 0.05

fraction unbound for O=C1CCC(N2C(=O)c3ccccc3C2=O)C(=O)N1 (configuration not stated) [THALIDOMIDE] is 0.4

The measured fraction unbound associated with CC(CN(C)C)CN1c2ccccc2CCc2ccccc21 (configuration not stated) reads 0.051

Hello, the source for this data is ChEMBL document CHEMBL1614632, in case you need it.
